Recorded pIC50, one value per entry.
target: human CYP11B1 (Homo sapiens); test: Inhibition of hCYP11B1 in transfected V79 cells; details: hamster V79 cells expressing human CYP11B1; substrate 11-deoxycortisol 200 nM
Sequence (P15538 25-503): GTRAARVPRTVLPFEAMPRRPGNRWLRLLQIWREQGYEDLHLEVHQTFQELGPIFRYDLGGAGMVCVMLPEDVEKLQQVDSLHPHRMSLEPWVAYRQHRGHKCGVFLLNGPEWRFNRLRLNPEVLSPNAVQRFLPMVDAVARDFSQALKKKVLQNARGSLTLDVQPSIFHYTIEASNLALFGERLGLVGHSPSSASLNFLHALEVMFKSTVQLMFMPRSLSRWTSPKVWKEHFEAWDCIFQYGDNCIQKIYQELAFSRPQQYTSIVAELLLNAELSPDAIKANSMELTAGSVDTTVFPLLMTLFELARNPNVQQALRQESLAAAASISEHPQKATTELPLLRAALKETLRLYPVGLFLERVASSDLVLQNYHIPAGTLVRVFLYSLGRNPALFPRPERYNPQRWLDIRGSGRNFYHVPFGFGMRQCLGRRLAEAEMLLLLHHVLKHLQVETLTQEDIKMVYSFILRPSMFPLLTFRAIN
pIC50: −log10 of the molar value.
readout.name: pIC50

compound=COc1cccc(C(=O)N2CC(C(=O)N3CCOc4c(-c5ccc(C#N)cc5)cncc43)C2)c1 test_target="human CYP11B1 (Homo sapiens)" reported_result=6.84
compound=O=C(c1ccccc1F)N1CCc2c(-c3ccc4[nH]ccc4c3)cncc21 test_target="human CYP11B1 (Homo sapiens)" reported_result=6.29
compound=N#Cc1ccc(-c2cncc3c2ccn3S(=O)(=O)c2cccc([N+](=O)[O-])c2)cc1 test_target="human CYP11B1 (Homo sapiens)" reported_result=9.30
compound=Cc1cccc(S(=O)(=O)n2ccc3c(-c4ccc(C#N)cc4)cncc32)c1 test_target="human CYP11B1 (Homo sapiens)" reported_result=9.52
compound=N#Cc1ccc(-c2cncc3c2ccn3S(=O)(=O)c2ccc(C(F)(F)F)cc2)cc1 test_target="human CYP11B1 (Homo sapiens)" reported_result=9.70
compound=N#Cc1ccc(-c2cncc3c2SCCN3S(=O)(=O)c2cccnc2)cc1 test_target="human CYP11B1 (Homo sapiens)" reported_result=8.74
compound=O=C(c1ccc(F)cc1)n1ccc2c(-c3ccc4nccn4c3)cncc21 test_target="human CYP11B1 (Homo sapiens)" reported_result=6.34
compound="COc1ccc(C(=O)N2CCSc3c(-c4ccc(C#N)cc4)cncc32)cc1 [S97]" test_target="human CYP11B1 (Homo sapiens)" reported_result=5.38
compound=N#Cc1ccc(-c2cncc3c2OCCN3S(=O)(=O)c2ccc([N+](=O)[O-])cc2)cc1 test_target="human CYP11B1 (Homo sapiens)" reported_result=8.96
compound=N#Cc1ccc(-c2cncc3c2CCN3S(=O)(=O)c2cccc3cccnc23)cc1 test_target="human CYP11B1 (Homo sapiens)" reported_result=9.15
compound=N#Cc1ccc(-c2cncc3c2ccn3C(=O)c2cccc([N+](=O)[O-])c2)cc1 test_target="human CYP11B1 (Homo sapiens)" reported_result=7.68
compound=O=C(c1ccccc1F)N1CCc2c(-c3ccc4occc4c3)cncc21 test_target="human CYP11B1 (Homo sapiens)" reported_result=5.74
compound=N#Cc1ccc(-c2cncc3c2OCCN3S(=O)(=O)C2CN(c3ccc(F)cc3)C2)cc1 test_target="human CYP11B1 (Homo sapiens)" reported_result=6.71
compound=O=C(c1ccccc1F)N1CCc2c(-c3cccc(F)c3)cncc21 test_target="human CYP11B1 (Homo sapiens)" reported_result=6.05
compound=COc1ccc(CC(=O)N2CCc3c(-c4ccc(C#N)cc4)cncc32)cc1 test_target="human CYP11B1 (Homo sapiens)" reported_result=7.21
compound="Cc1ccc(S(=O)(=O)n2ccc3c(-c4ccc(C#N)cc4)cncc32)cc1 [E2]" test_target="human CYP11B1 (Homo sapiens)" reported_result=9.40
compound=N#Cc1ccc(C(=O)N2CCc3c(-c4ccc(C#N)cc4)cncc32)cc1 test_target="human CYP11B1 (Homo sapiens)" reported_result=6.12
compound=COc1cccc(CCC(=O)N2CCOc3c(-c4ccc(C#N)cc4)cncc32)c1 test_target="human CYP11B1 (Homo sapiens)" reported_result=7.29
compound=N#Cc1ccc(S(=O)(=O)N2CCSc3c(-c4ccc5occc5c4)cncc32)cc1 test_target="human CYP11B1 (Homo sapiens)" reported_result=6.11
compound=O=C(c1ccc(F)cc1)n1ccc2c(-c3ccc4ncoc4c3)cncc21 test_target="human CYP11B1 (Homo sapiens)" reported_result=7.31
compound=Cc1ccc(C(=O)N2CCSc3c(-c4ccc(C#N)cc4)cncc32)cc1 test_target="human CYP11B1 (Homo sapiens)" reported_result=5.55
compound=N#Cc1ccc(-c2cncc3c2ccn3C(=O)c2ccccc2C(F)(F)F)cc1 test_target="human CYP11B1 (Homo sapiens)" reported_result=7.06
compound="N#Cc1ccc(-c2cncc3c2OCCN3C(=O)C2CN(S(=O)(=O)c3cccc(C#N)c3)C2)cc1 [O74]" test_target="human CYP11B1 (Homo sapiens)" reported_result=7.00
compound=O=S(=O)(C1CNC1)N1CCSc2c(-c3cc4cc(Cl)ccc4o3)cncc21 test_target="human CYP11B1 (Homo sapiens)" reported_result=6.29
compound=Cc1ccsc1C(=O)N1CCc2c(-c3ccc(C#N)cc3)cncc21 test_target="human CYP11B1 (Homo sapiens)" reported_result=6.82
compound=N#Cc1ccc(-c2cncc3c2ccn3S(=O)(=O)c2ccc3ccccc3c2)cc1 test_target="human CYP11B1 (Homo sapiens)" reported_result=9.22
compound=N#Cc1ccc(-c2cncc3c2OCCN3C(=O)c2ccc(Oc3ccc(F)cc3)s2)cc1 test_target="human CYP11B1 (Homo sapiens)" reported_result=6.53
compound=N#Cc1ccc(-c2cncc3c2OCCN3C(=O)CCc2ccc(Cl)cc2)cc1 test_target="human CYP11B1 (Homo sapiens)" reported_result=7.27
compound=N#Cc1ccc(-c2cncc3c2OCCN3C(=O)C2CN(c3cccc(C#N)c3)C2)cc1 test_target="human CYP11B1 (Homo sapiens)" reported_result=7.14
compound=COc1cccc(S(=O)(=O)N2CC(C(=O)N3CCOc4c(-c5ccc(C#N)cc5)cncc43)C2)c1 test_target="human CYP11B1 (Homo sapiens)" reported_result=6.31
compound=COc1ccc(S(=O)(=O)N2CCSc3c(-c4cc5cc(Cl)ccc5o4)cncc32)cn1 test_target="human CYP11B1 (Homo sapiens)" reported_result=7.14
compound=N#Cc1ccc(-c2cncc3c2OCCN3C(=O)C2CN(S(=O)(=O)c3cccs3)C2)cc1 test_target="human CYP11B1 (Homo sapiens)" reported_result=7.20
